- SYSTEM_TESTED: GST-CIB1 : F-scrambled peptide (Homo sapiens)
- Construct: made in house; host or cells: BL-21 plus RIL cells (E. coli)
- Sequence (Q99828 1-191): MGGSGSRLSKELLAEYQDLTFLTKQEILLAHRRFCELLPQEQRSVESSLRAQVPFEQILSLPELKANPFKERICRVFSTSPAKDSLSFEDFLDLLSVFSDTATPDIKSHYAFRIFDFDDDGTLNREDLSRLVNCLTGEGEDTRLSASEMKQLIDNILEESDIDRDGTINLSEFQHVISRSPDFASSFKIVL
- PROCEDURE_TEXT: FP scrambled-peptide counter screen, 1536-well format
- Assay type: binding
- RECORDED_CONDITIONS: Table S3, counterscreen; negative = inhibition
Recorded Efficacy (%) (counterscreen) for the following molecules
Your answer is read as %, so omit the unit and give the number.

Below are worked cases with known answers.
Entry under review: O=C(O)C(F)(F)F.O=C(c1ccc(-c2cc(O)c3ncccc3c2)cc1)N1CCNCC1 [NCGC00183806-01] . Reported Efficacy (%) (counterscreen)?
-59

Follow-up item: Cc1ccc(OCCn2c(CCNC(=O)c3ccsc3)nc3ccccc32)cc1.O=C(O)C(F)(F)F [NCGC00238707-01]
109

Similarly, COc1ccc(-n2ncc3c2CCCC3NC(=O)c2ccccc2F)cc1.O=C(O)C(F)(F)F (stereo not shown) [NCGC00273507-01] ?
13

Further cases:
Given the entry CN(C)CC1CCCN(C2CCN(C(=O)c3cccc(-c4cc(O)c5ncccc5c4)c3)CC2)C1.O=C(O)C(F)(F)F (stereo not shown) [NCGC00247737-01] , report its measured Efficacy (%) (counterscreen).
-46

Moving on to O=C(Nc1nc(-c2ccccc2)cs1)c1ccccc1NS(=O)(=O)c1ccc(F)cc1.O=C(O)C(F)(F)F [NCGC00247844-02]
102

Now the molecule Cc1ccsc1C1N=C(Nc2nc3ccccc3o2)NC2=C1C(=O)CCC2.O=C(O)C(F)(F)F (stereo not shown) [NCGC00189283-01]
-34

Follow-up item: Cc1c2c(=O)n(-c3ccccc3)[nH]c2cc(=O)n1-c1cccnc1.O=C(O)C(F)(F)F [NCGC00248472-01]
-60

---

- SYSTEM_TESTED: CIB1 and αIIb interaction (GST-CIB1 : F-αIIb peptide) (Homo sapiens)
- Construct: made in house; host or cells: BL-21 plus RIL cells (E. coli)
- PROCEDURE_TEXT: FP assay, 384-well format (screen)
- Type: binding
- Parameters: concentration or dose not given beside the values
- RECORDED_CONDITIONS: F-αIIb peptide
EXPERIMENTAL_ENDPOINT: 384-well SCREEN Efficacy (%)
Report the figure in % without appending any unit label.

Item: Cc1ccc(-c2cc(-c3nn(-c4nc(C(=O)O)cs4)c(CC4CC4)c3Cc3ccc(S(N)(=O)=O)c(F)c3)ccc2F)s1.Cl Test system: CIB1 and αIIb interaction (GST-CIB1 : F-αIIb peptide) (Homo sapiens) Read-out: 384-well SCREEN Efficacy (%) Value: ?
84

Now consider CCc1nnc(NS(=O)(=O)c2ccc(NC(=S)NC(=O)/C=C/c3ccc(F)cc3)cc2)s1 and answer again.
30

Item: NS(=O)(=O)c1cccc2c1c([N+](=O)[O-])cc1nc(O)c([O-])nc12.[Na+]
70

Continuing:
Hi! What's the reported 384-well SCREEN Efficacy (%) for Cc1cc(Nc2c(Nc3nnc(-c4ccncc4)s3)c(=O)c2=O)ccc1Cl.O=C(O)C(F)(F)F on CIB1 and αIIb interaction (GST-CIB1 : F-αIIb peptide) (Homo sapiens)?
23

Do the same for CCOC(=O)c1nnc(NS(=O)(=O)c2ccc(NC(=O)Cc3ccc(Cl)c(Cl)c3)cc2)s1.O=C(O)C(F)(F)F please
31

Quick one: O=C(CN(c1cccc(Br)c1)S(=O)(=O)c1ccccc1)NN=CC1=CC(=[N+]([O-])O)C=CC1=O.O=C(O)C(F)(F)F
40

---

- SYSTEM_TESTED: CIB1 and αIIb interaction (CIB1-GST : F-αIIb peptide) (Homo sapiens, UniProt Q99828)
- Construct: made in house; host or cells: BL-21 plus RIL cells (E. coli)
- PROCEDURE_TEXT: FP assay, 1536-well qHTS format (primary and confirmatory screen)
- Assay type: binding
- RECORDED_CONDITIONS: qHTS primary screen hits, Table S2; negative sign = inhibitory curve
Curve Class values for the compounds below.

Examples with answers:
Query for CIB1 and αIIb interaction (CIB1-GST : F-αIIb peptide) (Homo sapiens, UniProt Q99828): what Curve Class does the record show for CCN(CC)C(=O)[C@@H]1C=C2c3cccc4[nH]cc(c34)C[C@H]2N(C)C1 ?
-1.1

And then COc1ccccc1N1CCNCC1.Cl , what is it?
-3

Query O=C(Cc1ccc(Cl)c(Cl)c1)Nc1ccc(S(=O)(=O)Nc2cccc(C(=O)O)c2)cc1.O=C(O)C(F)(F)F next
-1.4

Input CCCCCCCCCCCC[N+](C)(C)Cc1ccccc1.[Cl-]
-2.2

For O=C(O)C(F)(F)F.O=C(c1ccc2ccccc2c1)c1no[n+]([O-])c1C(=O)c1ccc2ccccc2c1 then?
-2.2

Record: C[n+]1c2cc(N)ccc2cc2ccc(N)cc21
-1.3

More entries:
Curve Class of CN(C)[C@@H]1C(=O)C(C(=O)NCN2CCCC2)=C(O)[C@@]2(O)C(=O)C3=C(O)c4c(O)cccc4[C@@](C)(O)[C@H]3C[C@@H]12 on CIB1 and αIIb interaction (CIB1-GST : F-αIIb peptide) (Homo sapiens, UniProt Q99828)?
-2.4

Follow-up entry: COc1ccc(C(=O)O[C@H]2C=COC=C3C=C4C(=O)N(C)C(=S)C(=O)N4[C@@H]32)cc1Oc1cc(C=O)ccc1O
-2.2

Follow-up item: O=c1[nH]c2cc([N+](=O)[O-])c([N+](=O)[O-])cc2[nH]c1=O
-2.2

What about O=C(O)C(F)(F)F.O=C1CCCC2=C1C(c1ccn[nH]1)N=C(Nc1nc3ccccc3o1)N2 (stereo not shown) ?
-2.2

Again, but for CCCCCCCCCCCC[N+](C)(C)CCOc1ccccc1.[Br-]
-3

One more compound: O=C(Cc1ccc(Cl)c(Cl)c1)Nc1ccc(S(=O)(=O)Nc2ccon2)cc1.O=C(O)C(F)(F)F
-1.4

Repeat with S=P(N1CC1)(N1CC1)N1CC1
-2.2

What would you report for CC(C)N1CCc2c(sc(NC(=O)Cc3ccccc3)c2-c2nc3ccccc3s2)C1.O=C(O)C(F)(F)F ?
-2.1

Same question, Cl.Oc1ccc([C@H]2CNCc3c2ccc(O)c3O)cc1O this time
-3

Same question for COc1ccc(OC)c(-n2c3c(cc(-c4nnn(-c5ccc(Cl)cc5)n4)c2=O)C(=O)CC(C)(C)C3)c1.O=C(O)C(F)(F)F please.
-3

What about CCc1ccc(NC(=O)C(=O)NNC(=O)c2cccs2)cc1.O=C(O)C(F)(F)F ?
-1.4

---

We begin with a simple list: items and their reported Efficacy (%).
- SYSTEM_TESTED: CIB1 and αIIb interaction (CIB1-GST : F-αIIb peptide) (Homo sapiens)
- Construct: made in house; host or cells: BL-21 plus RIL cells (E. coli)
- PROCEDURE_TEXT: FP assay, 1536-well qHTS format (primary and confirmatory screen)
- Type: binding
- RECORDED_CONDITIONS: qHTS FP screen hits, Table S2; negative = inhibition
Please give a number only; it is taken to be in %.

Fill in the blank: the reported Efficacy (%) of CN(C(=O)c1cccs1)c1cccnc1.O=C(O)C(F)(F)F [NCGC00241518-01] is ____.
-77

And for C=C1C(=O)[C@@]23C(CC[C@@H]1[C@H]2O)[C@@]12CO[C@]3(O)[C@@H](O)[C@@H]1C(C)(C)CC[C@@H]2O (stereo partly shown) [NCGC00346595-01] ?
-48

Again, but for O=C1c2ccccc2C(=O)c2c1ccc(O)c2O [NCGC00095227-06]
-161

New cases:
Efficacy (%) lookup needed for N#Cc1cnc(NS(=O)(=O)c2ccc(NC(=O)Cc3ccc(Cl)c(Cl)c3)cc2)s1.O=C(O)C(F)(F)F [NCGC00250147-02] , thanks.
-40

---

The reader will find reported Curve Class (counterscreen) values listed item by item below.
- SYSTEM_TESTED: GST-CIB1 : F-scrambled peptide (Homo sapiens)
- Construct: made in house; host or cells: BL-21 plus RIL cells (E. coli)
- PROCEDURE_TEXT: FP scrambled-peptide counter screen, 1536-well format
- Type: binding
- RECORDED_CONDITIONS: counterscreen, qHTS curve class; negative sign = inhibitory curve

Solved cases (10 shown):
I have this molecule here, CN(C(=O)CN(CCO)CC(=O)N(C)C(C)(C)Cc1ccccc1)C(C)(C)Cc1ccccc1 , and I need its recorded Curve Class (counterscreen).
-2.4

Further, for CN1C[C@H](CNC(=O)OCc2ccccc2)C[C@@H]2c3cccc4c3c(cn4C)C[C@H]21 ?
-2.4

Queued: C=C1C(=O)[C@@]23C(CC[C@@H]1[C@H]2O)[C@@]12CO[C@]3(O)[C@@H](O)[C@@H]1C(C)(C)CC[C@@H]2O (stereo partly drawn)
-1.2

Now try O=C(O)C(F)(F)F.c1ccc(-n2ccc(-c3nnc4n3CCCCC4)c2)cc1 .
-3

Also, CC1=C[C@@H]2[C@H]([C@@H](O)C[C@@]3(C)[C@H]2C[C@@H](C)[C@]3(O)C(=O)CO)[C@@]2(C)Cc3cnn(-c4ccccc4)c3C=C12 please.
-1.2

What do you have for NC[C@@H](O)c1ccc(O)c(O)c1.O=C(O)C(O)C(O)C(=O)O ?
3

Request: CCOC(=O)c1ccc(O)c2ncc(N3CCC(C(=N)N)CC3)cc12.O=C(O)C(F)(F)F
-1.3

Next: C=C1[C@@H](C)[C@H]2[C@H](Cc3ccccc3)NC(=O)[C@]23OC(=O)/C=C/C(=O)CCC[C@@H](C)C/C=C/[C@H]3[C@@H]1O
-1.2

How about this molecule: CN1CCN([C@H]2CC[C@H](n3cc(-c4ccc(Oc5ccccc5)cc4)c4c(N)ncnc43)CC2)CC1.Cl
4

Similarly, Nc1ccc(CNc2ccc(S(=O)(=O)Nc3nccs3)cc2)c(O)c1.O=C(O)C(F)(F)F ?
-2.2

New cases:
Request the reported Curve Class (counterscreen) associated with Nc1ccc(O)c([N+](=O)[O-])c1
-2.1

Another molecule: Cc1ccc(S(=O)(=O)Nc2cnccc2C(=O)Nc2ccc(-c3nnn[nH]3)cc2)cc1.O=C(O)C(F)(F)F
4

Sourced from paper PMC11249646
